System: SK-MEL-2 melanoma
Test: NCI-60 one-dose screen, 48 h
Details: 10 µM unless noted
This is part of a sample that, as a whole, favours compounds with a hit. Of some 83,000 tested, about 20% had one in any assay. Activity calls are given as the source filed them. The calls were made as follows: active = growth percent below 10; inactive = the rest.
Classes used: Yes = active, No = inactive

[
  {
    "Molecule": "COC(=O)Nc1ccc(-c2nc(-c3cccc(OC)c3)c(-c3ccnc(Br)c3)[nH]2)cc1",
    "Category": "No"
  },
  {
    "Molecule": "Cc1cc(=O)[nH]c(=O)n1Cc1cn(-c2c3ccccc3nc3ccccc23)nn1",
    "Category": "No"
  },
  {
    "Molecule": "C#C[C@]1(O)CC[C@H]2[C@@H]3CC=C4c5sc(Nc6ccccc6)nc5CC[C@]4(C)[C@H]3CC[C@@]21C",
    "Category": "No"
  },
  {
    "Molecule": "Brc1c[n+](Cc2ccc3ccccc3c2)cn1Cc1ccc2ccccc2c1",
    "Category": "No"
  },
  {
    "Molecule": "Cc1nn(-c2ccccc2)c(-n2ccnc2)c1/C=N/Nc1nc(-c2ccc(Cl)c(Cl)c2)cs1",
    "Category": "No"
  },
  {
    "Molecule": "N#C/C(=C\\c1cccc2cnccc12)n1nnc2cccc(F)c21",
    "Category": "No"
  },
  {
    "Molecule": "COc1cccc2c(=O)c3c(sc12)c(N1CCNCC1)nc1ccccc13",
    "Category": "No"
  },
  {
    "Molecule": "Nc1ccc(Sc2ccc([N+](=O)[O-])c3nonc23)cc1",
    "Category": "No"
  },
  {
    "Molecule": "CC1Cc2ccccc2N1NC(=O)c1ccc(Cl)c(S(N)(=O)=O)c1 (stereo not given)",
    "Category": "No"
  },
  {
    "Molecule": "C=C1C(=O)O[C@H]2[C@H]1CC/C(COC(=O)C(C)c1ccc(CC(C)C)cc1)=C\\CC[C@@]1(C)O[C@@H]21 (stereo not given in full)",
    "Category": "No"
  },
  {
    "Molecule": "Cc1cc(=O)oc2cc(OC(=O)N3CCN(C)CC3)ccc12",
    "Category": "No"
  },
  {
    "Molecule": "CCCCC[C@H](O)C/C=C1/C(=O)C=C[C@@H]1C/C=C\\CCCC(=O)O",
    "Category": "No"
  },
  {
    "Molecule": "C#Cc1cccc(NC(=O)c2ccc(NC(=O)C=C)cc2)c1",
    "Category": "No"
  },
  {
    "Molecule": "CC1CN(C2CCCCC2)C(=S)N(c2ccccc2)C1=O (stereo not given)",
    "Category": "No"
  },
  {
    "Molecule": "CCN1C(=O)N(CC)C2Nn3c(s/c(=C4\\C(=O)N(CCC(C)C)c5ccccc54)c3=O)=NC21 (stereo not given)",
    "Category": "No"
  },
  {
    "Molecule": "O=C(CCOCCNC(=O)COc1ccc2c(c1)OCC(c1ccc(F)cc1)C2=O)NCCCC(O)(P(=O)(O)O)P(=O)(O)O (stereo not given)",
    "Category": "No"
  },
  {
    "Molecule": "Cc1ccc(-c2nc3c(c(-c4ccccc4)nn3-c3ccccc3)c(-c3ccc(O)cc3)c2C#N)cc1",
    "Category": "No"
  },
  {
    "Molecule": "CCN(CC)CCNc1nc2ccccc2c2c(=O)c3cc(Cl)ccc3sc12",
    "Category": "No"
  },
  {
    "Molecule": "CC/C=C\\C[C@@H](O)C/C=C1/C(=O)C=C[C@H]1C/C=C\\CCCC(=O)OC",
    "Category": "No"
  },
  {
    "Molecule": "COc1cccc(Cc2nn3cc(-c4ccccc4)nc3s2)c1",
    "Category": "No"
  },
  {
    "Molecule": "CC1=C(C)C(=O)C(Nc2cccc(C(=O)OC(C)(C)C)c2)=C(Br)C1=O",
    "Category": "No"
  },
  {
    "Molecule": "CCOC(=O)C1=C(N)Oc2c(sc3c(C)cccc23)C1c1ccc(F)cc1 (stereo not given)",
    "Category": "No"
  },
  {
    "Molecule": "CCc1ccc(Oc2c(-c3ccc(OCc4ccc(Cl)cc4)cc3O)n[nH]c2C(F)(F)F)cc1",
    "Category": "No"
  },
  {
    "Molecule": "N#Cc1c(-c2ccc(Cl)cc2)nc(NCCO)[nH]c1=O",
    "Category": "No"
  },
  {
    "Molecule": "CCCCCCCNC(=O)CCCNc1ncnc2c1ncn2-c1cccc(C(C)O)c1 (stereo not given)",
    "Category": "No"
  },
  {
    "Molecule": "c1cc(-c2nnc(SSc3ncnc4nc[nH]c34)o2)ccn1",
    "Category": "No"
  },
  {
    "Molecule": "Cc1ccc(-c2cnc3sc(C(=O)NCCc4ccccc4)c(C)n23)cc1",
    "Category": "No"
  },
  {
    "Molecule": "Cc1cc(=O)oc2cc(OC(=O)CN3CCN(C)CC3)ccc12",
    "Category": "No"
  },
  {
    "Molecule": "COc1ccccc1/C=C1\\Oc2cc(OCCN3CCC(Cc4ccccc4)CC3)ccc2C1=O",
    "Category": "No"
  },
  {
    "Molecule": "CC([C@H]1CCC2C3CCC4C[C@@H](NC=O)CC[C@]4(C)C3CC[C@@]21C)N(C)C (stereo not given in full)",
    "Category": "Yes"
  },
  {
    "Molecule": "O=[N+]([O-])c1ccccc1NCSc1ccc(Cl)cc1",
    "Category": "No"
  },
  {
    "Molecule": "O=C(CCN1C(=O)/C(=C/c2ccc(O)cc2)SC1=S)Nc1ccc(Cl)cc1",
    "Category": "No"
  },
  {
    "Molecule": "CCOC(=O)/C=C1\\S/C(=N\\Nc2ccc([N+](=O)[O-])cc2[N+](=O)[O-])N(Cc2ccccc2)C1=O",
    "Category": "No"
  },
  {
    "Molecule": "COc1cccc(-c2nc(-c3ccc(NC(=O)C(C)C)cc3)[nH]c2-c2ccnc(Br)c2)c1",
    "Category": "No"
  },
  {
    "Molecule": "COc1cc(Nc2nc(NCCN)nc3cc[nH]c(=O)c23)cc(OC)c1",
    "Category": "No"
  },
  {
    "Molecule": "COc1ccc(OC)c(/C=C2\\Oc3cc(OCCN4CCC(Cc5ccccc5)CC4)ccc3C2=O)c1",
    "Category": "No"
  },
  {
    "Molecule": "CN1CCN(CC(=O)N2c3cccc4cccc(c34)N(C(=O)CN3CCN(C)CC3)C2c2cn(-c3ccccc3)nc2-c2cccc([N+](=O)[O-])c2)CC1",
    "Category": "Yes"
  },
  {
    "Molecule": "O=C(S)CNC(=O)c1ccccc1",
    "Category": "No"
  },
  {
    "Molecule": "Cc1cc(O)c(C2=NN(c3ccc(S(N)(=O)=O)cc3)C(c3ccccc3O)C2)cc1Cl (stereo not given)",
    "Category": "No"
  },
  {
    "Molecule": "CCOc1cccc(NC2=C(Br)C(=O)C(C)=C(C)C2=O)c1",
    "Category": "No"
  }
]
